Cited source for all entries: ChEMBL document CHEMBL3244008

System: Escherichia coli B
Assay: Activation of Escherichia coli B thymidine kinase using [2-14C]-thymidine as substrate assessed as formation of [14C]-TMP at 0.5 mM after 10 mins by liquid scintillation spectrometric analysis relative to control
endpoint: Activity (%)

compound | measured_on | endpoint | experimental_value
Cc1cn([C@H]2C[C@H](O)[C@@H](CSCCO)O2)c(=O)[nH]c1=O | Escherichia coli B | Activity | 15
Cc1cn([C@H]2C[C@H](O)[C@@H](CSCCC(=O)O)O2)c(=O)[nH]c1=O | Escherichia coli B | Activity | 126
Cc1cn([C@H]2C[C@H](O)[C@@H](CSCCCC(=O)O)O2)c(=O)[nH]c1=O | Escherichia coli B | Activity | 60
Cc1cn([C@H]2C[C@H](O)[C@@H](C[S+]([O-])CCC(=O)O)O2)c(=O)[nH]c1=O (stereo not given in full) | Escherichia coli B | Activity | -1
CCSC[C@H]1O[C@@H](n2cc(C)c(=O)[nH]c2=O)C[C@@H]1O | Escherichia coli B | Activity | 63

###

Test system: Escherichia coli B
Assay: Activation of Escherichia coli B thymidine kinase using [2-14C]-thymidine as substrate assessed as formation of [14C]-TMP at 2 mM after 10 mins by liquid scintillation spectrometric analysis relative to control
Measured Activity by item

compound | measured_on | unit_symbol | Activity
CC[S+]([O-])C[C@H]1O[C@@H](n2cc(C)c(=O)[nH]c2=O)C[C@@H]1O (stereo partly specified) | Escherichia coli B | % | -4
Cc1cn([C@H]2C[C@H](O)[C@@H](CSCCO)O2)c(=O)[nH]c1=O | Escherichia coli B | % | 25
Cc1cn([C@H]2C[C@H](O)[C@@H](CSCCCC(=O)O)O2)c(=O)[nH]c1=O | Escherichia coli B | % | 62
Cc1cn([C@H]2C[C@H](O)[C@@H](C[S+]([O-])CCC(=O)O)O2)c(=O)[nH]c1=O (stereo partly specified) | Escherichia coli B | % | 42
Cc1cn([C@H]2C[C@H](O)[C@@H](CSCCC(=O)O)O2)c(=O)[nH]c1=O | Escherichia coli B | % | 125
CCSC[C@H]1O[C@@H](n2cc(C)c(=O)[nH]c2=O)C[C@@H]1O | Escherichia coli B | % | 46

###

Test system: Escherichia coli B
Experiment: Activation of Escherichia coli B thymidine kinase using [2-14C]-thymidine as substrate assessed as formation of [14C]-TMP at 8 mM after 10 mins by liquid scintillation spectrometric analysis relative to control
endpoint: Activity (%)

molecule | endpoint | experimental_value
Cc1cn([C@H]2C[C@H](O)[C@@H](CSCCCC(=O)O)O2)c(=O)[nH]c1=O | Activity | 35
CC[S+]([O-])C[C@H]1O[C@@H](n2cc(C)c(=O)[nH]c2=O)C[C@@H]1O (some centres undefined) | Activity | 22
Cc1cn([C@H]2C[C@H](O)[C@@H](CSCCC(=O)O)O2)c(=O)[nH]c1=O | Activity | 106
Cc1cn([C@H]2C[C@H](O)[C@@H](C[S+]([O-])CCC(=O)O)O2)c(=O)[nH]c1=O (some centres undefined) | Activity | 65

###

Measured inhibition by item
System: Escherichia coli B
Assay: Inhibition of Escherichia coli B thymidine kinase using [2-14C]-thymidine as substrate assessed as formation of [14C]-TMP at 0.5 mM after 10 mins by liquid scintillation spectrometric analysis relative to control
endpoint: inhibition (%)

smiles_repr | experimental_value
CCn1c(=O)c(C)cn([C@H]2C[C@H](O)[C@@H](CO)O2)c1=O | 30
N#Cc1cn([C@H]2C[C@H](O)[C@@H](CO)O2)c(=O)[nH]c1=O | 23
CC(=O)NC[C@H]1O[C@@H](n2cc(C)c(=O)[nH]c2=O)C[C@@H]1O | 0
CCNc1cn([C@H]2C[C@H](O)[C@@H](CO)O2)c(=O)[nH]c1=O | 0
CCn1c(=O)ccn([C@H]2C[C@H](O)[C@@H](CO)O2)c1=O | 12
CCNc1ccn([C@H]2C[C@H](O)[C@@H](CO)O2)c(=O)n1 | 0
Nc1ccn([C@H]2C[C@H](O)[C@@H](CO)O2)c(=O)n1 | 0
CCCCCn1c(=O)c(C)cn([C@H]2C[C@H](O)[C@@H](CO)O2)c1=O | 45
CC(=O)Nc1cn([C@H]2C[C@H](O)[C@@H](CO)O2)c(=O)[nH]c1=O | 15
NCc1cn([C@H]2C[C@H](O)[C@@H](CO)O2)c(=O)[nH]c1=O | 14
CC(=O)NCCC(=O)Nc1cn([C@H]2C[C@H](O)[C@@H](CO)O2)c(=O)[nH]c1=O | 0
CCCC(=O)NC[C@H]1O[C@@H](n2cc(C)c(=O)[nH]c2=O)C[C@@H]1O | 0
CCCCNC[C@H]1O[C@@H](n2cc(C)c(=O)[nH]c2=O)C[C@@H]1O | 9
CCCn1c(=O)ccn([C@H]2C[C@H](O)[C@@H](CO)O2)c1=O | 18
CCCn1c(=O)c(C)cn([C@H]2C[C@H](O)[C@@H](CO)O2)c1=O | 28

###

Tested on: Escherichia coli B
Assay: Inhibition of Escherichia coli B thymidine kinase using [2-14C]-thymidine as substrate assessed as formation of [14C]-TMP at 2 mM after 10 mins by liquid scintillation spectrometric analysis relative to control

compound | inhibition
CC(=O)N(C)CCCCN(C)C[C@H]1O[C@@H](n2cc(C)c(=O)[nH]c2=O)C[C@@H]1O | 14%
N#Cc1cn([C@H]2C[C@H](O)[C@@H](CO)O2)c(=O)[nH]c1=O | 40%
CCOC1N([C@H]2C[C@H](O)[C@@H](CO)O2)C(=O)NC(=O)C1(C)Br (single isomer, unassigned) | 11%
CC(=O)N(C)CCCCCCN(C)C[C@H]1O[C@@H](n2cc(C)c(=O)[nH]c2=O)C[C@@H]1O | 14%
CCNc1ccn([C@H]2C[C@H](O)[C@@H](CO)O2)c(=O)n1 | 0%
CC(=O)Nc1cn([C@H]2C[C@H](O)[C@@H](CO)O2)c(=O)[nH]c1=O | 15%
CC(=O)N(C)CCN(C)C[C@H]1O[C@@H](n2cc(C)c(=O)[nH]c2=O)C[C@@H]1O | 0%
CCNc1cn([C@H]2C[C@H](O)[C@@H](CO)O2)c(=O)[nH]c1=O | 0%
CC(=O)NCCC(=O)Nc1cn([C@H]2C[C@H](O)[C@@H](CO)O2)c(=O)[nH]c1=O | 0%
CCCCNC[C@H]1O[C@@H](n2cc(C)c(=O)[nH]c2=O)C[C@@H]1O | 12%
Nc1ccn([C@H]2C[C@H](O)[C@@H](CO)O2)c(=O)n1 | 0%

###

Test: Competitive inhibition of Escherichia coli B thymidine kinase using [2-14C]-thymidine as substrate assessed as formation of [14C]-TMP after 10 mins by Lineweaver-Burk double reciprocal plot analysis
Conditions: read-out: Ki(app)
pKi: −log10 of the molar value.
Mark Not fulfilled for pKi values under 3, and Fulfilled for everything at or above.

compound | assigned_category
O=c1ccn([C@H]2C[C@H](O)[C@@H](CO)O2)c(=O)[nH]1 | Fulfilled
CCCCCCNC[C@H]1O[C@@H](n2cc(C)c(=O)[nH]c2=O)C[C@@H]1O | Not fulfilled
CC(=O)NCC(O)[C@H]1O[C@@H](n2cc(C)c(=O)[nH]c2=O)C[C@@H]1O (stereo in doubt; 4a) | Not fulfilled
Cc1cn([C@H]2C[C@H](O)[C@@H](CN)O2)c(=O)[nH]c1=O | Fulfilled
CCC(=O)NCC(O)[C@H]1O[C@@H](n2cc(C)c(=O)[nH]c2=O)C[C@@H]1O (single isomer, unassigned; more polar) | Not fulfilled
CC(=O)NCC(O)[C@H]1O[C@@H](n2cc(C)c(=O)[nH]c2=O)C[C@@H]1O (mixture of isomers) | Not fulfilled

###

Experiment: Non-competitive inhibition of Escherichia coli B thymidine kinase using [2-14C]-thymidine as substrate assessed as formation of [14C]-TMP after 10 mins by Lineweaver-Burk double reciprocal plot analysis
Conditions: read-out: I50
pIC50: −log10 of the molar value.
Mark Condition not met for pIC50 values under 3, and Condition met for everything at or above.

molecule | assigned_category
CCn1c(=O)c(C)cn([C@H]2C[C@H](O)[C@@H](CO)O2)c1=O | Condition not met
CCS[C@H]1C[C@H](n2cc(C)c(=O)[nH]c2=O)O[C@@H]1CO | Condition met
Cc1cn([C@H]2C[C@H](N)[C@@H](CO)O2)c(=O)[nH]c1=O [3-AMINO- 3-DEOXYTHYMIDINE] | Condition not met
CC(=O)N[C@H]1C[C@H](n2cc(C)c(=O)[nH]c2=O)O[C@@H]1CO | Condition not met
CCCCCn1c(=O)c(C)cn([C@H]2C[C@H](O)[C@@H](CO)O2)c1=O | Condition met
Nc1cn([C@H]2C[C@H](O)[C@@H](CO)O2)c(=O)[nH]c1=O | Condition not met
O=c1ccn([C@@H]2O[C@H](CO)[C@@H](O)[C@H]2O)c(=O)[nH]1 [URIDINE] | Condition not met
